# Tested on: Streptococcus pneumoniae
# procedureSummary: Antibacterial activity against constitutive MLS resistance Streptococcus pneumoniae 58 by broth microdilution method
# Type: functional

structureString	MIC
CC[C@H]1OC(=O)[C@H](C)[C@@H](O[C@H]2C[C@@](C)(OC)[C@@H](OC(=O)CCNCCNc3cc4c(=O)c(C(=O)O)cn(C5CC5)c4cc3Cl)[C@H](C)O2)[C@H](C)[C@@H](O[C@@H]2O[C@H](C)C[C@H](N(C)C)[C@H]2O)[C@](C)(O)C[C@@H](C)C(=O)[C@H](C)[C@@H](O)[C@]1(C)O	≤ 0.125 µg/mL
CC[C@H]1OC(=O)[C@H](C)[C@@H](O[C@H]2C[C@@](C)(OC)[C@@H](OC(=O)CCNCCNc3ccc4c(=O)c(C(=O)O)cn(C5CC5)c4c3)[C@H](C)O2)[C@H](C)[C@@H](O[C@@H]2O[C@H](C)C[C@H](N(C)C)[C@H]2O)[C@](C)(O)C[C@@H](C)CN(C)[C@H](C)[C@@H](O)[C@]1(C)O	≤ 0.125 µg/mL
CC[C@H]1OC(=O)[C@H](C)[C@@H](O[C@H]2C[C@@](C)(OC)[C@@H](OC(=O)CCNCCNc3ccc4c(=O)c(C(=O)O)cn(C)c4c3)[C@H](C)O2)[C@H](C)[C@@H](O[C@@H]2O[C@H](C)C[C@H](N(C)C)[C@H]2O)[C@](C)(O)C[C@@H](C)NC(=O)[C@H](C)[C@@H](O)[C@]1(C)O	1 µg/mL

====

# Test system: Streptococcus pneumoniae
# procedureSummary: Antibacterial activity against constitutive MLS resistance Streptococcus pneumoniae 58 by broth microdilution method
# Type: functional
Recorded measurements of MIC, one per entry

structureString	MIC
CC[C@H]1OC(=O)[C@H](C)[C@@H](O[C@H]2C[C@@](C)(OC)[C@@H](OC(=O)CCNCCNc3cc4c(=O)c(C(=O)OC)cn(C5CC5)c4cc3Cl)[C@H](C)O2)[C@H](C)[C@@H](O[C@@H]2O[C@H](C)C[C@H](N(C)C)[C@H]2O)[C@](C)(O)C[C@@H](C)C(=O)[C@H](C)[C@@H](O)[C@]1(C)O	≤ 0.125 µg/mL
CC[C@H]1OC(=O)[C@H](C)[C@@H](O[C@H]2C[C@@](C)(OC)[C@@H](OC(=O)CCNCCNc3cc4c(=O)c(C(=O)OC)cn(C5CC5)c4cc3Cl)[C@H](C)O2)[C@H](C)[C@@H](O[C@@H]2O[C@H](C)C[C@H](N(C)C)[C@H]2O)[C@](C)(O)C[C@@H](C)CN(C)[C@H](C)[C@@H](O)[C@]1(C)O	≤ 0.125 µg/mL
CC[C@H]1OC(=O)[C@H](C)[C@@H](O[C@H]2C[C@@](C)(OC)[C@@H](OC(=O)CCNCCNc3cc4c(cc3F)c(=O)c(C(=O)O)cn4C3CC3)[C@H](C)O2)[C@H](C)[C@@H](O[C@@H]2O[C@H](C)C[C@H](N(C)C)[C@H]2O)[C@](C)(O)C[C@@H](C)CN(C)[C@H](C)[C@H]2OC(=O)O[C@@]21C	≤ 0.125 µg/mL
CC[C@H]1OC(=O)[C@H](C)[C@@H](O[C@H]2C[C@@](C)(OC)[C@@H](OC(=O)CCNCCNc3ccc4c(c3)c(=O)c(C(=O)O)cn4C3CC3)[C@H](C)O2)[C@H](C)[C@@H](O[C@@H]2O[C@H](C)C[C@H](N(C)C)[C@H]2O)[C@](C)(O)C[C@@H](C)C(=O)[C@H](C)[C@@H](O)[C@]1(C)O	≤ 0.125 µg/mL
CC[C@H]1OC(=O)[C@H](C)[C@@H](O[C@H]2C[C@@](C)(OC)[C@@H](OC(=O)CCNCCCCNc3ccc4c(=O)c(C(=O)O)cn(C)c4c3)[C@H](C)O2)[C@H](C)[C@@H](O[C@@H]2O[C@H](C)C[C@H](N(C)C)[C@H]2O)[C@](C)(O)C[C@@H](C)C(=O)[C@H](C)[C@@H](O)[C@]1(C)O	4 µg/mL
CC[C@H]1OC(=O)[C@H](C)[C@@H](O[C@H]2C[C@@](C)(OC)[C@@H](OC(=O)CCN(C)CCNc3cc4c(cc3F)c(=O)c(C(=O)O)cn4C3CC3)[C@H](C)O2)[C@H](C)[C@@H](O[C@@H]2O[C@H](C)C[C@H](N(C)C)[C@H]2O)[C@](C)(O)C[C@@H](C)CN(C)[C@H](C)[C@@H](O)[C@]1(C)O	0.25 µg/mL
CC[C@H]1OC(=O)[C@H](C)[C@@H](O[C@H]2C[C@@](C)(OC)[C@@H](OC(=O)CCN(C)CCNc3cc4c(=O)c(C(=O)O)cn(C5CC5)c4cc3Cl)[C@H](C)O2)[C@H](C)[C@@H](O[C@@H]2O[C@H](C)C[C@H](N(C)C)[C@H]2O)[C@](C)(O)C[C@@H](C)CN(C)[C@H](C)[C@@H](O)[C@]1(C)O	≤ 0.125 µg/mL
CC[C@H]1OC(=O)[C@H](C)[C@@H](O[C@H]2C[C@@](C)(OC)[C@@H](OC(=O)CCNCCCCNc3ccc4c(=O)c(C(=O)O)cn(C5CC5)c4c3)[C@H](C)O2)[C@H](C)[C@@H](O[C@@H]2O[C@H](C)C[C@H](N(C)C)[C@H]2O)[C@](C)(O)C[C@@H](C)CN(C)[C@H](C)[C@@H](O)[C@]1(C)O	4 µg/mL
CC[C@H]1OC(=O)[C@H](C)[C@@H](O[C@H]2C[C@@](C)(OC)[C@@H](OC(=O)CCN(C)CCNc3cc4c(cc3F)c(=O)c(C(=O)O)cn4C3CC3)[C@H](C)O2)[C@H](C)[C@@H](O[C@@H]2O[C@H](C)C[C@H](N(C)C)[C@H]2O)[C@](C)(O)C[C@@H](C)CN(C)[C@H](C)[C@H]2OC(=O)O[C@@]21C	1 µg/mL
CC[C@H]1OC(=O)[C@H](C)[C@@H](O[C@H]2C[C@@](C)(OC)[C@@H](OC(=O)CCNCCNc3cc4c(cc3F)c(=O)c(C(=O)O)cn4C3CC3)[C@H](C)O2)[C@H](C)[C@@H](O[C@@H]2O[C@H](C)C[C@H](N(C)C)[C@H]2O)[C@](C)(O)C[C@@H](C)CN(C)[C@H](C)[C@@H](O)[C@]1(C)O	0.25 µg/mL
CC[C@H]1OC(=O)[C@H](C)[C@@H](O[C@H]2C[C@@](C)(OC)[C@@H](OC(=O)CCNCCNc3ccc4c(=O)c(C(=O)O)cn(C5CC5)c4c3)[C@H](C)O2)[C@H](C)[C@@H](O[C@@H]2O[C@H](C)C[C@H](N(C)C)[C@H]2O)[C@](C)(O)C[C@@H](C)NC(=O)[C@H](C)[C@@H](O)[C@]1(C)O	32 µg/mL
CC[C@H]1OC(=O)[C@H](C)[C@@H](O[C@H]2C[C@@](C)(OC)[C@@H](OC(=O)CCNCCNc3ccc4c(c3)c(=O)c(C(=O)O)cn4C3CC3)[C@H](C)O2)[C@H](C)[C@@H](O[C@@H]2O[C@H](C)C[C@H](N(C)C)[C@H]2O)[C@](C)(O)C[C@@H](C)CN(C)[C@H](C)[C@@H](O)[C@]1(C)O	≤ 0.125 µg/mL

====

# Test system: Streptococcus pneumoniae
# procedureSummary: Antibacterial activity against constitutive MLS resistance Streptococcus pneumoniae 58 by broth microdilution method
# Type: functional
Recorded measurements of MIC, one per entry

structureString	MIC
CC[C@H]1OC(=O)[C@H](C)[C@@H](O[C@H]2C[C@@](C)(OC)[C@@H](OC(=O)CCNCCNc3ccc4c(=O)c(C(=O)O)cn(CC)c4c3)[C@H](C)O2)[C@H](C)[C@@H](O[C@@H]2O[C@H](C)C[C@H](N(C)C)[C@H]2O)[C@](C)(O)C[C@@H](C)C(=O)[C@H](C)[C@@H](O)[C@]1(C)O	≤ 0.125 mg/L
CC[C@H]1OC(=O)[C@H](C)[C@@H](O[C@H]2C[C@@](C)(OC)[C@@H](OC(=O)CCNCCNc3ccc4c(=O)c(C(=O)O)cn(C5CC5)c4c3)[C@H](C)O2)[C@H](C)[C@@H](O[C@@H]2O[C@H](C)C[C@H](N(C)C)[C@H]2O)[C@](C)(O)C[C@@H](C)C(=O)[C@H](C)[C@@H](O)[C@]1(C)O	≤ 0.125 mg/L
CC[C@H]1OC(=O)[C@H](C)[C@@H](O[C@H]2C[C@@](C)(OC)[C@@H](OC(=O)CCNCCNc3ccc4c(=O)c(C(=O)O)cn(CC)c4c3)[C@H](C)O2)[C@H](C)[C@@H](O[C@@H]2O[C@H](C)C[C@H](N(C)C)[C@H]2O)[C@](C)(O)C[C@@H](C)CN(C)[C@H](C)[C@@H](O)[C@]1(C)O	≤ 0.125 mg/L

The measurements presented in this section are drawn from ChEMBL document CHEMBL1221233.
